details: 100 ml bile extracted, analytical gradient HPLC with CsA internal standard
Amount of cyclosporine per liter of bile as determined with internal standard by entry:
Reply with the number and its unit after it.

Completed entries (count: 2):
{"COMPOUND": "CC[C@@H]1NC(=O)[C@H]([C@H](O)[C@H](C)C/C=C/CO)N(C)C(=O)[C@H](C(C)C)N(C)C(=O)[C@H](CC(C)C)N(C)C(=O)[C@H](CC(C)(C)O)N(C)C(=O)[C@@H](C)NC(=O)[C@H](C)NC(=O)[C@H](CC(C)C)N(C)C(=O)[C@H](C(C)C)NC(=O)[C@H](CC(C)C)N(C)C(=O)CN(C)C1=O [OL-8, 1,9 dihydroxy cyclosporine A]", "TEST RESULT": "640 µg/L"}
{"COMPOUND": "C/C=C/C[C@@H](C)[C@@H](O)[C@H]1C(=O)N[C@@H](CC)C(=O)N(C)CC(=O)N(C)[C@@H](CC(C)C)C(=O)N[C@@H](C(C)C)C(=O)N(C)[C@@H](CC(C)C)C(=O)N[C@@H](C)C(=O)N[C@H](C)C(=O)N(C)[C@@H](CC(C)(C)O)C(=O)N(C)[C@@H](CC(C)C)C(=O)N(C)[C@@H](C(C)C)C(=O)N1C [OL-1, 9-hydroxy cyclosporine A]", "TEST RESULT": "364 µg/L"}

Alright, here's another compound for you.
Just so you know, measured Amount of cyclosporine per liter of bile as determined with internal standard for C/C=C/C[C@@H](C)[C@@H](O)[C@H]1C(=O)N[C@@H](CC)C(=O)N(C)CC(=O)N(C)[C@@H](CC(C)C)C(=O)N[C@@H](C(C)C)C(=O)N(C)[C@@H](CC(C)C)C(=O)N[C@@H](C)C(=O)N[C@H](C)C(=O)N(C)[C@@H](CC(C)(C)O)C(=O)N[C@@H](CC(C)C)C(=O)N(C)[C@@H](C(C)C)C(=O)N1C [CM Peak H] came out at 536 µg/L

----------
test system: Renal glomerular mesangial cells; conditions: CM effects only at concentrations greater than 1 and 5 μg/ml
PROPERTY: Inhibition of RNA synthesis

{"COMPOUND": "C/C=C/C[C@@H](C)[C@@H](O)[C@H]1C(=O)N[C@@H](CC)C(=O)N(C)CC(=O)N(C)[C@@H](CC(C)C)C(=O)N[C@@H](C(C)C)C(=O)N(C)[C@@H](CC(C)C)C(=O)N[C@@H](C)C(=O)N[C@H](C)C(=O)N(C)[C@@H](CC(C)(C)O)C(=O)N(C)[C@@H](CC(C)C)C(=O)N(C)[C@@H](C(C)C)C(=O)N1C [OL-1, 9-hydroxy cyclosporine A]", "TARGET OF ASSAY": "Renal glomerular mesangial cells", "PROPERTY": "Inhibition of RNA synthesis", "TEST RESULT": "some inhibitory effects"}
{"COMPOUND": "C/C=C/C[C@@H](C)[C@@H](O)[C@H]1C(=O)N[C@@H](CC)C(=O)N(C)CC(=O)N(C)[C@@H](CC(C)C)C(=O)N[C@@H](C(C)C)C(=O)N(C)[C@@H](CC(C)C)C(=O)N[C@@H](C)C(=O)N[C@H](C)C(=O)N(C)[C@@H](CC(C)(C)O)C(=O)N[C@@H](CC(C)C)C(=O)N(C)[C@@H](C(C)C)C(=O)N1C [CM Peak H]", "TARGET OF ASSAY": "Renal glomerular mesangial cells", "PROPERTY": "Inhibition of RNA synthesis", "TEST RESULT": "some inhibitory effects"}
{"COMPOUND": "CC[C@@H]1NC(=O)[C@H]([C@H](O)[C@H](C)C/C=C/CO)N(C)C(=O)[C@H](C(C)C)N(C)C(=O)[C@H](CC(C)C)N(C)C(=O)[C@H](CC(C)(C)O)N(C)C(=O)[C@@H](C)NC(=O)[C@H](C)NC(=O)[C@H](CC(C)C)N(C)C(=O)[C@H](C(C)C)NC(=O)[C@H](CC(C)C)N(C)C(=O)CN(C)C1=O [OL-8, 1,9 dihydroxy cyclosporine A]", "TARGET OF ASSAY": "Renal glomerular mesangial cells", "PROPERTY": "Inhibition of RNA synthesis", "TEST RESULT": "some inhibitory effects"}
